Assay read-out pIC50; system under study: UniProtKB P07813.
Answers are plain numbers, as −log10 of the molar value.

compound | reported metric | readout value
Cl.NC[C@H]1OB(O)c2c1ccc1c2OCO1 (single isomer, unassigned) [Compound 10, hydrochloride] | pIC50 | 6.42
Cl.NCC1OB(O)c2cc3c(cc21)OCO3 (stereo not drawn) [Compound 1, hydrochloride] | pIC50 | 5.85

# get_value(readout='pIC50', item= Cl.NCC1OB(O)c2c1ccc1c2CCC1 (stereo not drawn) [Compound 3, hydrochloride] )
5.60

---

As an illustration, consider measured IC50 for compounds on E. coli LRS (Escherichia coli, UniProt P07813).
Sequence (P07813 whole entry): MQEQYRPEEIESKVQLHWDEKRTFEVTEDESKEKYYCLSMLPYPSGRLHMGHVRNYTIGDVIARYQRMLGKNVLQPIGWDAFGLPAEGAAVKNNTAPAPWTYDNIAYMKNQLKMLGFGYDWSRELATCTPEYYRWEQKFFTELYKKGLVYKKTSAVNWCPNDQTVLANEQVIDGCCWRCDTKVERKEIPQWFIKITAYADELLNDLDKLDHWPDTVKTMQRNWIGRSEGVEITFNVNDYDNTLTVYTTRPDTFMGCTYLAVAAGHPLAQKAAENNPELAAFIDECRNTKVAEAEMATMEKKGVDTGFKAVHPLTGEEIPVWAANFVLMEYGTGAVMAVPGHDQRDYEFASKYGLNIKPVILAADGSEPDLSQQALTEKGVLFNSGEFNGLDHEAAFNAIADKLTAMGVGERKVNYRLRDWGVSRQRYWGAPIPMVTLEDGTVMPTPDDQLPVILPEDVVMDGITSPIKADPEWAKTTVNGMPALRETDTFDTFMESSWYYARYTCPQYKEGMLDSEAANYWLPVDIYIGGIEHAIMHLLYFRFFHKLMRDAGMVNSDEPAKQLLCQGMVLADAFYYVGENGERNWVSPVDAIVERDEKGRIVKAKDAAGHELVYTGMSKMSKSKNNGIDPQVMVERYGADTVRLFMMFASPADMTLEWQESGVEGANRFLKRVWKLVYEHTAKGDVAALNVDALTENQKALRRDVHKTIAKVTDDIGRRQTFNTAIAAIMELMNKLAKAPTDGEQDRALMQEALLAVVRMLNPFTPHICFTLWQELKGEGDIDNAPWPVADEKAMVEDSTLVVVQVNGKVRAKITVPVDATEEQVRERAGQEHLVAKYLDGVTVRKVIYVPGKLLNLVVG
Numbers only, in µM.

Solved entries:
compound | reported metric | readout units | readout value
Cl.NCC1OB(O)c2c1ccc1c2OCO1 (stereo not drawn) [Compound 9, hydrochloride] | IC50 | µM | 1.7
Cl.NCC1OB(O)c2c1ccc1c2OCCO1 (stereo not drawn) [Compound 8, hydrochloride] | IC50 | µM | 2.1
Cl.NCC1OB(O)c2ccc3c(c21)OCCO3 (stereo not drawn) [Compound 7, hydrochloride] | IC50 | µM | 0.8

Kindly give each listed record's IC50.
1. Cl.NCC1OB(O)c2cc3c(cc21)OCC3 (stereo not drawn) [Compound 12, hydrochloride]
2. Cl.NCC1OB(O)c2cc3c(cc21)CCO3 (stereo not drawn) [Compound 11, hydrochloride]
3. Cl.NCC1OB(O)c2c1ccc1c2CCCC1 (stereo not drawn) [Compound 4, hydrochloride]
4. Cl.NCC1OB(O)c2ccc3c(c21)OCO3 (stereo not drawn) [Compound 5, hydrochloride]

1: 2.8; 2: 2.9; 3: 4.5; 4: 0.8

For the compound shown here, Cl.NCC1OB(O)c2cc3c(cc21)OCCO3 (stereo not drawn) [Compound 2, hydrochloride] , give the reported IC50.
3.35

---

- subject of test: P. aeruginosa LRS (Pseudomonas aeruginosa)
- Construct: made in house
- measurement protocol: Leucine tRNA synthetase (LRS) enzyme inhibition assay
- Type: biochemical
- condition label: 3H leucine incorporation
reported metric: IC50 (µM)
Give bare numbers, in µM.

compound | readout units | readout value
Cl.NCC1OB(O)c2c1ccc1c2OCO1 (centres unmarked) [Compound 9, hydrochloride] | µM | 2.7

Fill in IC50 for each of the 2 compounds listed.
1. Cl.NCC1OB(O)c2c1ccc1c2CCCC1 (centres unmarked) [Compound 4, hydrochloride]
2. Cl.NCC1OB(O)c2c1ccc1c2CCC1 (centres unmarked) [Compound 3, hydrochloride]

1: 9.5; 2: 2.2

---

- measurement protocol: Oral bioavailability (BA) in mouse
- Type: in vivo
- condition label: female, plasma, 8.5 mg/kg body weight, Swiss mice, 8.5 mg/kg oral, 4.25 mg/kg intravenous, read-out: oral absolute bioavailability
- Procedure: (Test Example 8b) Oral Bioavailability (BA) in Mouse To Female Swiss mouse (23±3 g) test compound was administered as 0.5 mg/mL intravenous and 1 mg/mL oral solution in milli-Q water (pH 5.0). The final dose was 4.25 mg/kg body weight (intravenous) and 8.5 mg/kg body weight (oral route). Plasma samples analyzed for test compound using LC-MS/MS method. Estimation of pharmacokinetic parameters was done by using moment analysis. […]
reported metric: bioavailability (%)
Numbers only, in %.

Please report the recorded bioavailability for Cl.NC[C@H]1OB(O)c2ccc3c(c21)OCO3 (single isomer, unassigned) [Compound 6] .
62

---

- measurement protocol: Oral bioavailability (BA) in rats
- Assay type: in vivo
- condition label: male, rat, plasma, 8.5 mg/kg body weight; Sprague Dawley Rats, 8.5 mg/kg oral, 4.25 mg/kg intravenous; read-out: oral absolute bioavailability
reported metric: bioavailability (%)
Give bare numbers, in %.

Requested field: bioavailability. Item: Cl.NC[C@H]1OB(O)c2ccc3c(c21)OCO3 (single isomer, unassigned)
72

---

- Test system: E. coli ATCC 25922
- measurement protocol: MICs in Muller Hinton Broth and pooled human urine
- Assay type: cell-based
- condition label: Escherichia coli, ATCC25922; pooled human urine pH 5.5; read-out: E. coli ATCC 25922 MIC (μg/mL) Urine pH 5.5
reported metric: MIC
Include the unit right after the number.

Check out these entries, answers already filled in.
compound | MIC
Cl.NCC1OB(O)c2ccc3c(c21)OCO3 (stereo not shown) [Compound 5] | 4 µg/mL
Cl.NCC1OB(O)c2c1ccc1c2OCO1 (stereo not shown) [Compound 9] | 8 µg/mL
Cl.NC[C@H]1OB(O)c2c1ccc1c2OCO1 (single isomer, unassigned) [Compound 10] | 4 µg/mL

# next compound below
Name the recorded MIC for Cl.NCC1OB(O)c2c1ccc1c2OCCO1 (stereo not shown) [Compound 8] .
16 µg/mL

---

- System: P. aeruginosa PAO1 (parent, MexAB del, MexAB over expression)
- measurement protocol: MICs against Pseudomonas efflux pump mutants
- Format: cell-based
- condition label: PAO1, read-out: MIC (μg/mL) P. aeruginosa PAO1 MexAB over expression
reported metric: MIC (µg/mL)
Give bare numbers, in µg/mL.

Known MIC results, listed for orientation:
compound | readout units | MIC
Cl.NCC1OB(O)c2c1ccc1c2OCO1 (stereo not shown) | µg/mL | 4
Cl.NC[C@H]1OB(O)c2c1ccc1c2OCO1 (single isomer, unassigned) | µg/mL | 1
Cl.NCC1OB(O)c2ccc3c(c21)OCO3 (stereo not shown) | µg/mL | 8

Field: next compound
What value of MIC has been recorded for this entry: Cl.NCC1OB(O)c2c1ccc1c2OCCO1 (stereo not shown)
4

---

- subject of test: P. aeruginosa LRS (Pseudomonas aeruginosa, UniProt Q9HX33)
- Construct: made in house
- Sequence (Q9HX33 whole entry): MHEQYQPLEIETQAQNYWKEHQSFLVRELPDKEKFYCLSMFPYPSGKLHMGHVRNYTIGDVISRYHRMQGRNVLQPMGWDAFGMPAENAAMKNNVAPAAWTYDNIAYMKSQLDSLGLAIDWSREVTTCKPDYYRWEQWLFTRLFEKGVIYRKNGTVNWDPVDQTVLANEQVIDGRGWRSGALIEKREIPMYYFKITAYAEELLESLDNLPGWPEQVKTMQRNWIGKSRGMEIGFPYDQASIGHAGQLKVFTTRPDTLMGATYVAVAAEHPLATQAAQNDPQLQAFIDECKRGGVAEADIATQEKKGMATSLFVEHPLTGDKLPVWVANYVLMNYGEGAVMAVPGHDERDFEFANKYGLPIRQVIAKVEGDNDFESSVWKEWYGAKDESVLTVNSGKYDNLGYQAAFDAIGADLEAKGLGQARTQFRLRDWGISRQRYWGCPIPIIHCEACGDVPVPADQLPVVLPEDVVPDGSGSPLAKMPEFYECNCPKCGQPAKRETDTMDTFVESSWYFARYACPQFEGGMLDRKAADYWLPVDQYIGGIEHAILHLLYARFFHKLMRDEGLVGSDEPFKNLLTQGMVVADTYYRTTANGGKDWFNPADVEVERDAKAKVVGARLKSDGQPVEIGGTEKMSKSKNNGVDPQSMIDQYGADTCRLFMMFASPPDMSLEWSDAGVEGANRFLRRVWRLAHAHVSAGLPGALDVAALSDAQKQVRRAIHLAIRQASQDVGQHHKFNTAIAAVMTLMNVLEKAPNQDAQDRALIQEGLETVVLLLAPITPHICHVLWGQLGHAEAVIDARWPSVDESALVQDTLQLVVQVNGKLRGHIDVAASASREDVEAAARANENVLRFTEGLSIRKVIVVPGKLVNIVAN
- measurement protocol: Leucine tRNA synthetase (LRS) enzyme inhibition assay
- Format: biochemical
- condition label: 3H leucine incorporation
reported metric: IC50

Record excerpt, results attached:
molecule | IC50
Cl.NC[C@H]1OB(O)c2c1ccc1c2OCO1 (single isomer, unassigned) [Compound 10, hydrochloride] | 0.62 µM
Cl.NCC1OB(O)c2cc3c(cc21)OCO3 (stereo not shown) [Compound 1, hydrochloride] | > 10 µM
Cl.NCC1OB(O)c2cc3c(cc21)CCO3 (stereo not shown) [Compound 11, hydrochloride] | > 10 µM
Cl.NCC1OB(O)c2ccc3c(c21)OCO3 (stereo not shown) [Compound 5, hydrochloride] | 2.3 µM
Cl.NC[C@H]1OB(O)c2ccc3c(c21)OCO3 (single isomer, unassigned) [Compound 6, hydrochloride] | < 0.12 µM
Cl.NCC1OB(O)c2ccc3c(c21)OCCO3 (stereo not shown) [Compound 7, hydrochloride] | 0.6 µM

Kindly review the next molecule as well.
Could you share which IC50 value was measured for Cl.NCC1OB(O)c2c1ccc1c2OCCO1 (stereo not shown) [Compound 8, hydrochloride] ?
3.2 µM
